Hey, just so you know, these numbers are from paper PMC6711467.

- experiment: Vaginal PK study: IQB4012 gel
- setupConditions: female, pigtailed macaque, vaginal tissue, proximal, other: vaginal, 0.5 ml
quantityKind: concentration at 4 h (ng/g)
Give a bare numeral; the unit ng/g is implied.

(Q) May I ask what concentration at 4 h has been recorded for C[C@H](Cn1cnc2c(N)ncnc21)OCP(=O)(O)O [TFV, tenofovir] ?
(A) 4490

====

- experiment: Vaginal PK study: IQB4012 gel
- setupConditions: female, pigtailed macaque, vaginal tissue, medial, other: vaginal, 0.5 ml
quantityKind: concentration at 24 h (ng/g)
Give a bare numeral; the unit ng/g is implied.

(Q) May I ask what concentration at 24 h has been recorded for C[C@H](Cn1cnc2c(N)ncnc21)OCP(=O)(O)O ?
(A) 3550

====

- experiment: Vaginal PK study: IQB4012 gel
- setupConditions: female, pigtailed macaque, vaginal fluid, distal, other: vaginal, 1.5 ml gel
quantityKind: concentration at 4 h (µg/mL)
Give a bare numeral; the unit µg/mL is implied.

(Q) May I ask what concentration at 4 h has been recorded for C[C@H](Cn1cnc2c(N)ncnc21)OCP(=O)(O)O [TFV, tenofovir] ?
(A) 153

====

- experiment: Vaginal PK study: IQB4012 gel
- setupConditions: female, pigtailed macaque, vaginal tissue, distal, other: vaginal, 1.5 ml gel
quantityKind: concentration at 24 h (ng/g)
Give a bare numeral; the unit ng/g is implied.

(Q) May I ask what concentration at 24 h has been recorded for C[C@H](Cn1cnc2c(N)ncnc21)OCP(=O)(O)O [TFV, tenofovir] ?
(A) 5380

====

- experiment: Vaginal PK study: IQB4012 gel
- setupConditions: female, pigtailed macaque, vaginal fluid, distal, other: vaginal, 0.5 ml
quantityKind: concentration at 2 h
The reply must contain the numeric value and, after it, the unit.

(Q) May I ask what concentration at 2 h has been recorded for C[C@H](Cn1cnc2c(N)ncnc21)OCP(=O)(O)O ?
(A) 232 µg/mL

====

- experiment: Rectal PK study: IQB4012 gel
- Type: in vivo, pigtailed macaques
- setupConditions: female, pigtailed, pigtailed macaque, rectal fluid, other: rectal, 1 ml
quantityKind: concentration at 2 h (ng/mL)
Give a bare numeral; the unit ng/mL is implied.

(Q) May I ask what concentration at 2 h has been recorded for C[C@H](Cn1cnc2c(N)ncnc21)OCP(=O)(O)O [TFV, tenofovir] ?
(A) 3230

====

- experiment: Rectal PK study: IQB4012 gel
- Format: in vivo, pigtailed macaques
- setupConditions: female, pigtailed macaque, rectal fluid, other: rectal, 4 ml
quantityKind: concentration at 4 h (ng/mL)
Give a bare numeral; the unit ng/mL is implied.

(Q) May I ask what concentration at 4 h has been recorded for C[C@H](Cn1cnc2c(N)ncnc21)OCP(=O)(O)O [TFV, tenofovir] ?
(A) 864

====

- experiment: Rectal PK study: IQB4012 gel
- Format: in vivo, pigtailed macaques
- setupConditions: female, pigtailed macaque, rectal tissue, other: rectal, 4 ml
quantityKind: concentration at 4 h

(Q) May I ask what concentration at 4 h has been recorded for C[C@H](Cn1cnc2c(N)ncnc21)OCP(=O)(O)O ?
(A) 393 ng/g

====

- experiment: Vaginal PK study: IQB4012 gel
- setupConditions: female, pigtailed macaque, vaginal fluid, proximal, other: vaginal, 0.5 ml
quantityKind: concentration at 24 h (ng/mL)
Give a bare numeral; the unit ng/mL is implied.

(Q) May I ask what concentration at 24 h has been recorded for C[C@H](Cn1cnc2c(N)ncnc21)OCP(=O)(O)O ?
(A) 48900
